- testSystem: human cyclin D1-CDK4 (Homo sapiens)
- testDetails: FlashPlate kinase assay, cyclin D1-CDK4, Rb substrate
- conditionsUsed: recombinant cyclin D1-CDK4, Rb phosphorylation, 1 μM ATP
pIC50: −log10 of the molar value.
Recorded pIC50 values for a group of compounds are listed next.

>  <compound>
Cc1cccc(C(=O)c2sc(Nc3ccc(OC4CCNC4)cc3)nc2N)c1 (stereo not shown)

>  <pIC50>
7.17

$$$$
>  <compound>
CCNCCOc1ccc(Nc2nc(N)c(C(=O)c3cccc(OC)c3)s2)cc1

>  <pIC50>
7.32

$$$$
>  <compound>
CCN(CC)CCOc1ccc(Nc2nc(N)c(C(=O)c3ccc(OC)c(F)c3)s2)cc1

>  <pIC50>
7.49

$$$$
>  <compound>
CCNCCOc1ccc(Nc2nc(N)c(C(=O)c3cccc(CC)c3)s2)cc1

>  <pIC50>
7.68

$$$$

---

- Tested on: HCT116, a colorectal carcinoma cell line
- testDetails: Tetrazolium dye proliferation assay (MTT assay)
- Assay type: cell-based
- conditionsUsed: Homo sapiens, HCT-116, HCT116 cells, inhibition of cell proliferation
pIC50: −log10 of the molar value.
experimentalEndpoint: pIC50

>  <compound>
CCNCCOc1ccc(Nc2nc(N)c(C(=O)c3cccc(CC)c3)s2)cc1 [Example 101, Acetic Acid]

>  <testSystem>
HCT116, a colorectal carcinoma cell line

>  <result>
6.16

$$$$
>  <compound>
CCc1cc(C(=O)c2sc(Nc3ccc(OCCN4CCCC4)cc3)nc2N)ccc1F [Example 76]

>  <testSystem>
HCT116, a colorectal carcinoma cell line

>  <result>
5.43

$$$$
>  <compound>
C[C@H](COc1ccc(Nc2nc(N)c(C(=O)c3cccc(C4CC4)c3)s2)cc1)N1CCCC1 [Example 68]

>  <testSystem>
HCT116, a colorectal carcinoma cell line

>  <result>
5.92

$$$$
>  <compound>
Cc1cccc(C(=O)c2sc(Nc3ccc(OCCN4CCCC4)cc3)nc2N)c1 [Example 51]

>  <testSystem>
HCT116, a colorectal carcinoma cell line

>  <result>
6.21

$$$$
>  <compound>
CCc1cccc(C(=O)c2sc(Nc3ccc(OCC(C)(C)N(C)C)cc3)nc2N)c1 [Example 61]

>  <testSystem>
HCT116, a colorectal carcinoma cell line

>  <result>
6.02

$$$$
>  <compound>
CCc1cccc(C(=O)c2sc(Nc3ccc(OC[C@@H](C)N(C)C)cc3)nc2N)c1 [Example 63]

>  <testSystem>
HCT116, a colorectal carcinoma cell line

>  <result>
6.21

$$$$
>  <compound>
CC1COc2ccc(C(=O)c3sc(Nc4ccc(OCCN5CCCC5)cc4)nc3N)cc21 (centres unmarked) [Example 140]

>  <testSystem>
HCT116, a colorectal carcinoma cell line

>  <result>
5.33

$$$$
>  <compound>
CCc1cccc(C(=O)c2sc(Nc3ccc(OC4CCN(CC)C4)cc3)nc2N)c1 (centres unmarked) [Example 84]

>  <testSystem>
HCT116, a colorectal carcinoma cell line

>  <result>
5.82

$$$$

---

- testSystem: human cyclin D1-CDK4 (Homo sapiens, UniProt P11802)
- Sequence (P11802 whole entry): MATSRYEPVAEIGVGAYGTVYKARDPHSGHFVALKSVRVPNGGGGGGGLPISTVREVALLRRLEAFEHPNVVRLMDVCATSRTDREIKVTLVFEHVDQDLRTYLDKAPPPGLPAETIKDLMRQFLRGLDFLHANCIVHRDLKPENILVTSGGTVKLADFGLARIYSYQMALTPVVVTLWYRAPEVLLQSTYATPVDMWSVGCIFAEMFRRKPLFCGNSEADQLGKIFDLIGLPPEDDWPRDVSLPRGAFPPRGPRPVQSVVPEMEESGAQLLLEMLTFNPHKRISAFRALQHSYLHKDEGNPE
- Sequence (P24385 whole entry partner): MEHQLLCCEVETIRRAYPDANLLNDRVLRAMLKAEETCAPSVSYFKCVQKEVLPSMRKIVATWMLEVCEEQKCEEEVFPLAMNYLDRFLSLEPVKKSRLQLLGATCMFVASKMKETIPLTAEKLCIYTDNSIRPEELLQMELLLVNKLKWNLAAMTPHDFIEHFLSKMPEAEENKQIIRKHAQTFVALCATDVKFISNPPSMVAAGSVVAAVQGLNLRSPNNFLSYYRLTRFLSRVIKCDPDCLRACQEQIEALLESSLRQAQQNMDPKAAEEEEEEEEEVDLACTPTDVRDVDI
- testDetails: FlashPlate kinase assay, cyclin D1-CDK4, Rb substrate
- conditionsUsed: recombinant cyclin D1-CDK4, Rb phosphorylation, 1 μM ATP
- Description: To determine inhibition of Cdk4, Cdk2 and Cdk1 activity, kinase assays were conducted using FlashPlate™ assays (NEN™-Life Science Products). FlashPlate assays were performed using recombinant human cyclin B-CDK1, human cyclin E-CDK2 or human cyclin D1-CDK4 complexes. […] The expression of the 62 Kd protein was under the control of an IPTG inducible promoter in an M15 E. coli strain. […] Purified Rb fusion protein stocks were quantitated for protein concentration, aliquoted, and stored at −70° C. […]
// returns NOT MET unless IC50 is strictly below 40 nM, in which case MET

>  <molecule>
CCc1cccc(C(=O)c2sc(Nc3ccc(OC[C@@H](C)N4CCCC4)cc3)nc2N)c1 [Example 67]

>  <classAssignment>
NOT MET

$$$$
>  <molecule>
CCCc1cc(C(=O)c2sc(Nc3ccc(OC4CCCNC4)cc3)nc2N)ccc1O (centres unmarked) [Example 99]

>  <classAssignment>
MET

$$$$
>  <molecule>
CCc1cc(C(=O)c2sc(Nc3ccc(OCCN4CCCC4)cc3)nc2N)ccc1F [Example 76]

>  <classAssignment>
NOT MET

$$$$
>  <molecule>
CN1CCC[C@H]1COc1ccc(Nc2nc(N)c(C(=O)c3cccc(F)c3)s2)cc1 [Example 44]

>  <classAssignment>
NOT MET

$$$$
>  <molecule>
Nc1nc(Nc2ccc(OCCN3CCCC3)cc2)sc1C(=O)c1cccc(F)c1 [Example 36]

>  <classAssignment>
MET

$$$$
>  <molecule>
Nc1nc(Nc2ccc(OCCN3CCOCC3)cc2)sc1C(=O)c1ccc2c(c1)OCO2 [Example 56]

>  <classAssignment>
MET

$$$$
>  <molecule>
CN1CCC[C@H]1COc1ccc(Nc2nc(N)c(C(=O)c3cccc(C4CC4)c3)s2)cc1 [Example 113]

>  <classAssignment>
NOT MET

$$$$
>  <molecule>
C[C@H](COc1ccc(Nc2nc(N)c(C(=O)c3cccc(C4CC4)c3)s2)cc1)N(C)C [Example 70]

>  <classAssignment>
MET

$$$$

---

- testSystem: human cyclin E-CDK2 (Homo sapiens, UniProt P24941)
- testDetails: FlashPlate kinase assay, cyclin E-CDK2, Rb substrate
- conditionsUsed: recombinant cyclin E-CDK2, Rb phosphorylation, 1 μM ATP
Recorded IC50 values for a group of compounds are listed next.
experimentalEndpoint: IC50 (nM)

>  <compound>
CCN1CCCC(Oc2ccc(Nc3nc(N)c(C(=O)c4cccc(C)c4)s3)cc2)C1 (stereo not drawn) [Example 78]

>  <experimentalEndpoint>
IC50

>  <unitText>
nM

>  <result>
1080

$$$$
>  <compound>
COc1ccc(C(=O)c2sc(Nc3ccc(OCCCN)cc3)nc2N)cc1F [Example 147]

>  <experimentalEndpoint>
IC50

>  <unitText>
nM

>  <result>
1730

$$$$
>  <compound>
CN(C)CCOc1ccc(Nc2nc(N)c(C(=O)c3cccc(F)c3)s2)cc1 [Example 37]

>  <experimentalEndpoint>
IC50

>  <unitText>
nM

>  <result>
892

$$$$
>  <compound>
CN1CCC[C@H]1COc1ccc(Nc2nc(N)c(C(=O)c3cccc(C4CC4)c3)s2)cc1 [Example 113]

>  <experimentalEndpoint>
IC50

>  <unitText>
nM

>  <result>
3340

$$$$
>  <compound>
CCN(CC)CCOc1ccc(Nc2nc(N)c(C(=O)c3ccc(OC)c(F)c3)s2)cc1 [Example 125]

>  <experimentalEndpoint>
IC50

>  <unitText>
nM

>  <result>
6790

$$$$
>  <compound>
Nc1nc(Nc2ccc(OC3CCNC3)cc2)sc1C(=O)c1cccc(C2CC2)c1 (stereo not drawn) [Example 93, Acetic Acid]

>  <experimentalEndpoint>
IC50

>  <unitText>
nM

>  <result>
1200

$$$$
>  <compound>
CCCc1cc(C(=O)c2sc(Nc3ccc(OC4CCCN(CC)C4)cc3)nc2N)ccc1O (stereo not drawn) [Example 88, Acetic Acid]

>  <experimentalEndpoint>
IC50

>  <unitText>
nM

>  <result>
234

$$$$
>  <compound>
CCc1cccc(C(=O)c2sc(Nc3ccc(OCCN4CCCC4)cc3)nc2N)c1 [Example 53]

>  <experimentalEndpoint>
IC50

>  <unitText>
nM

>  <result>
930

$$$$
>  <compound>
CCN1CCCC(Oc2ccc(Nc3nc(N)c(C(=O)c4cccc(C5CC5)c4)s3)cc2)C1 (stereo not drawn) [Example 80]

>  <experimentalEndpoint>
IC50

>  <unitText>
nM

>  <result>
2280

$$$$

---

- testSystem: human cyclin E-CDK2 (Homo sapiens, UniProt P24941)
- testDetails: FlashPlate kinase assay, cyclin E-CDK2, Rb substrate
- conditionsUsed: recombinant cyclin E-CDK2, Rb phosphorylation, 1 μM ATP
Recorded log10 IC50 values for a group of molecules are listed next.
experimentalEndpoint: log10 IC50 (log10 of the value in nM)

>  <molecule>
CCNCCOc1ccc(Nc2nc(N)c(C(=O)c3cccc(C4CC4)c3)s2)cc1 [Example 102, Acetic Acid]

>  <log10 IC50>
3.23

$$$$
>  <molecule>
CN(C)CCOc1ccc(Nc2nc(N)c(C(=O)c3cccc(C#N)c3)s2)cc1 [Example 60]

>  <log10 IC50>
3.23

$$$$
>  <molecule>
CCNCCOc1ccc(Nc2nc(N)c(C(=O)c3cccc(OC)c3)s2)cc1 [Example 130]

>  <log10 IC50>
3.52

$$$$
>  <molecule>
CN1CCC[C@H]1COc1ccc(Nc2nc(N)c(C(=O)c3cccc(F)c3)s2)cc1 [Example 44]

>  <log10 IC50>
3.10

$$$$
>  <molecule>
Nc1nc(Nc2ccc(OCCN3CCCC3)cc2)sc1C(=O)c1cccc(F)c1 [Example 36]

>  <log10 IC50>
2.90

$$$$
>  <molecule>
C[C@H](COc1ccc(Nc2nc(N)c(C(=O)c3cccc(C4CC4)c3)s2)cc1)N(C)C [Example 70]

>  <log10 IC50>
3.50

$$$$
>  <molecule>
CCCc1cc(C(=O)c2sc(Nc3ccc(OCCN4CCCC4)cc3)nc2N)ccc1O [Example 109, Acetic Acid]

>  <log10 IC50>
2.32

$$$$
>  <molecule>
COc1ccc(C(=O)c2sc(Nc3ccc(OCCN4CCCC4)cc3)nc2N)cc1[N+](=O)[O-] [Example 48]

>  <log10 IC50>
3.50

$$$$
>  <molecule>
CCN1CCC(Oc2ccc(Nc3nc(N)c(C(=O)c4cccc(F)c4)s3)cc2)C1 (stereo not drawn) [Example 42]

>  <log10 IC50>
2.70

$$$$
>  <molecule>
Nc1nc(Nc2ccc(OCCN3CCCC3)cc2)sc1C(=O)c1cccc(F)c1 [Example 118, Acetic Acid]

>  <log10 IC50>
2.95

$$$$
>  <molecule>
CCN1CCC(Oc2ccc(Nc3nc(N)c(C(=O)c4ccc(C)c(F)c4)s3)cc2)C1 (stereo not drawn) [Example 86]

>  <log10 IC50>
3.21

$$$$
>  <molecule>
CCc1cccc(C(=O)c2sc(Nc3ccc(OC4CCCN(CC)C4)cc3)nc2N)c1 (stereo not drawn) [Example 79]

>  <log10 IC50>
3.07

$$$$
>  <molecule>
CCNCCOc1ccc(Nc2nc(N)c(C(=O)c3cccc(C)c3)s2)cc1 [Example 100, Acetic Acid]

>  <log10 IC50>
3.09

$$$$
>  <molecule>
CN(C)CCOc1ccc(Nc2nc(N)c(C(=O)c3cccc([N+](=O)[O-])c3)s2)cc1 [Example 54]

>  <log10 IC50>
3.09

$$$$
>  <molecule>
CCc1cccc(C(=O)c2sc(Nc3ccc(OC[C@@H](C)N(C)C)cc3)nc2N)c1 [Example 63]

>  <log10 IC50>
3.28

$$$$
>  <molecule>
CCCc1cc(C(=O)c2sc(Nc3ccc(OC[C@@H](C)N4CCCC4)cc3)nc2N)ccc1O [Example 110, Acetic Acid]

>  <log10 IC50>
2.26

$$$$
>  <molecule>
C[C@H](COc1ccc(Nc2nc(N)c(C(=O)c3cccc(F)c3)s2)cc1)N(C)C [Example 40]

>  <log10 IC50>
3.00

$$$$
>  <molecule>
Cc1ccc(C(=O)c2sc(Nc3ccc(OC4CCNC4)cc3)nc2N)cc1F (stereo not drawn) [Example 94, Acetic Acid]

>  <log10 IC50>
3.31

$$$$
>  <molecule>
CCc1cccc(C(=O)c2sc(Nc3ccc(OC4CCCNC4)cc3)nc2N)c1 (stereo not drawn) [Example 98]

>  <log10 IC50>
3.09

$$$$
>  <molecule>
Cc1ccc(C(=O)c2sc(Nc3ccc(OC[C@@H](C)N(C)C)cc3)nc2N)cc1F [Example 74]

>  <log10 IC50>
3.71

$$$$
>  <molecule>
CCCc1cc(C(=O)c2sc(Nc3ccc(OCCN(C)C)cc3)nc2N)ccc1O [Example 106]

>  <log10 IC50>
2.43

$$$$
>  <molecule>
CCNCCCOc1ccc(Nc2nc(N)c(C(=O)c3ccc(OC)c(F)c3)s2)cc1 [Example 148]

>  <log10 IC50>
3.28

$$$$
>  <molecule>
CCN(CC)CCOc1ccc(Nc2nc(N)c(C(=O)c3ccc(O)c(F)c3)s2)cc1 [Example 123]

>  <log10 IC50>
3.22

$$$$
>  <molecule>
CCc1cccc(C(=O)c2sc(Nc3ccc(OC4CCN(CC)C4)cc3)nc2N)c1 (stereo not drawn) [Example 84]

>  <log10 IC50>
2.44

$$$$
